# experiment_description: Cytotoxicity against human Calu-3 cells infected with SARS CoV-2 USA-WA1/2020 clinical isolate assessed as reduction in cell viability incubated for 48 hrs by imaging analysis
# Assay type: toxicity, cell-based
recorded_endpoint: CC50 at 48 h

| compound_string | reported_value |
| --- | --- |
| COc1ccc(/C=C(\C#N)C(=O)N(c2ccc(-c3ccccc3)cc2)[C@@H](C(=O)N[C@@H](C)c2ccccc2)c2cccnc2)cc1 | > 100 µM |
| CCC(CC)COC(=O)[C@H](C)N[P@](=O)(OC[C@H]1O[C@@](C#N)(c2ccc3c(N)ncnn23)[C@H](O)[C@@H]1O)Oc1ccccc1 | > 10 µM |
| C[C@H](NC(=O)[C@@H](c1cccnc1)N(C(=O)C#CCC#N)c1ccc(-c2ccccc2)cc1)c1ccccc1 | > 100 µM |
